- System: SR
- TEST: NCI tumour cell line growth inhibition, 48 h
The source made the active and inactive calls. No stated cut-off is given here; in the data, active = GI50 up to about 1.1 µM and inactive = higher. Where a SMILES comes first, the peptide text is derived from it. The star is where a group is joined. Boc = CC(C)(C)OC(=O)*; OBn = c1ccc(CO*)cc1
Answer with one of the outcomes Yes for active, No for inactive

// query What classification did Cc1ccc2c(c1C)CC1(Cc3ccc(C)c(C)c3C1=O)C2=O (centres undefined) end up with in this test?
// result No

// query What classification did O=C1C2C3C=CC(C2C(=O)N1CN1CCOCC1)C1C2C(=O)N(CN4CCOCC4)C(=O)C2C31 (centres undefined) end up with in this test?
// result No

// query What classification did COc1cccc(/N=C/c2cc(OC)c(OC)c(OC)c2)c1 end up with in this test?
// result No

// query What classification did Cc1ccc(NC(=O)C2C(=O)N(c3ccc(C)c(C)c3)C(=O)/C2=N\NC(N)=S)cc1C (centres undefined) end up with in this test?
// result No

// query What classification did C[C@@H](O)C(=O)N1[C@@H]2CC3CC[C@]2(CS1(=O)=O)C3(C)C end up with in this test?
// result No

// query What classification did O=c1[nH]n(Cc2ccccc2CCl)c2ccc([N+](=O)[O-])cc12 end up with in this test?
// result No

// query What classification did COc1ccc(OC)c(NC(=O)CCC/C(CC(=O)c2ccc(O)c(OC)c2)=N\Nc2nnc(C)n2N)c1 end up with in this test?
// result No

// query What classification did Cc1cccc(C)c1NC(=O)C(=O)CC(=O)CO end up with in this test?
// result No

// query What classification did Cc1nn(C)cc1P(=S)(c1ccccc1)c1ccccc1 end up with in this test?
// result No

// query What classification did c1cnc2c(c1)-n1cccc1C1(CCSC1)NN2 (centres undefined) end up with in this test?
// result No

// query What classification did COc1ccc(NC(=S)N/N=C(\c2ccccc2)c2ccccn2)cc1 end up with in this test?
// result Yes

// query What classification did C/C(CC(O)(/C=N/O)c1ccccc1)=N/O (centres undefined) end up with in this test?
// result No

// query What classification did CN(C)C(=S)/N=c1\ssc(=S)n1Cc1cccs1 end up with in this test?
// result No

// query What classification did COc1c(OC(C)=O)cc2c(OC(C)=O)c1CC(C)CC(OC)C(O)C(C)/C=C(\C)C(OC(N)=O)C(OC)/C=C\C=C(/C)C(=O)N2 (centres undefined) end up with in this test?
// result No

// query What classification did O=C1C[C@H](c2ccccc2)C2(C(=O)c3ccccc3C2=O)[C@H](c2ccccc2)C1 end up with in this test?
// result No

// query What classification did C=CCC12CC(=O)CCC1c1ccc(OC)cc1C2=O (centres undefined) end up with in this test?
// result No

// query What classification did CC(=O)Nc1ccc(/C=C/C(=O)c2sc(-n3nc(-c4ccccc4)cc3-c3ccccc3)nc2C)cc1 end up with in this test?
// result No

// query What classification did Cn1nc(-c2ccccc2)c2c(/C=C/c3ccccc3)onc2c1=O end up with in this test?
// result No

// query What classification did CC(C)=CC(C(O)c1ccccc1)S(=O)(=O)c1nccn1C (centres undefined) end up with in this test?
// result No

// query What classification did CC(C)OP(=O)(OC(C)C)/C(=N/Nc1ccc([N+](=O)[O-])cc1)NCCN/C(=N\Nc1ccc([N+](=O)[O-])cc1)P(=O)(OC(C)C)OC(C)C end up with in this test?
// result No

// query What classification did CC(=O)Oc1ccc2c3c1O[C@H]1[C@H](O)CC[C@@]4(O)[C@@H](C2)N(C)CC[C@]314 end up with in this test?
// result No

// query What classification did Cc1cc(C(=O)CBr)c(CN2C(=O)c3ccccc3C2=O)c(=O)n1C end up with in this test?
// result No

// query What classification did CC(NC(=O)C(Cc1ccccc1)NC(=O)C(Cc1ccccc1)NC(=O)OC(C)(C)C)C(=O)OCc1ccccc1 (stereo not drawn) (Boc-Phe-Phe-Ala-OBn; configuration not given here) end up with in this test?
// result No

// query What classification did COc1ccc(/C=c2\sc3n(c2=O)C(N)=C(C#N)C(c2ccc(OC)cc2)C=3c2nc3ccccc3[nH]2)cc1 (centres undefined) end up with in this test?
// result No

// query What classification did CCCCc1c2c(nc3c1CCc1cc4c(nc1-3)-c1nc3c(c(CCCC)c1CC4)CCC/C3=C\c1ccccc1)/C(=C/c1ccccc1)CCC2 end up with in this test?
// result No

// query What classification did O=C1Nc2ccccc2/C1=c1\[nH]c(=O)/c(=C\c2ccc(OCc3ccccc3)cn2)[nH]c1=O end up with in this test?
// result No

// query What classification did C=C(c1ccccc1)c1ccccc1-c1cc(-c2ccccc2)cc(-c2ccccc2)n1 end up with in this test?
// result No

// query What classification did CC1(C)CC2=C(Sc3ccccc3N2)C(=O)C1C(=O)C(=O)Nc1cc(Cl)ccc1Cl (centres undefined) end up with in this test?
// result No

// query What classification did Cn1c2ccccc2c2c3c(=O)[nH][nH]c(=O)c3c3c4ccccc4n(C)c3c21 end up with in this test?
// result Yes

// query What classification did NNC(=O)N/N=C1\CN(c2ccc(Cl)cc2Cl)C(=O)C(=O)C1c1nc2ccccc2o1 (centres undefined) end up with in this test?
// result No

// query What classification did CC1=NN(c2cccc(Cl)c2)C2(SCC(=O)N2c2nc3ccccc3s2)/C1=C\c1ccc(Cl)cc1 (centres undefined) end up with in this test?
// result No

// query What classification did Cn1c(=O)nc2n(-c3cc(C(F)(F)F)cc(C(F)(F)F)c3)c3ccccc3nc-2c1=O end up with in this test?
// result No

// query What classification did O=C(Nc1ccc2ncccc2c1)c1cc2c(cc1Cl)Sc1nccn1S2(=O)=O end up with in this test?
// result No

// query What classification did COc1cc(CC(C(=O)O)C(=O)O)c(OC)cc1CC(C(=O)O)C(=O)O end up with in this test?
// result No

// query What classification did COc1cc(C(c2ccc3c(c2)OCO3)C2SCCCS2)cc(OC)c1OC (centres undefined) end up with in this test?
// result Yes

// query What classification did C1CSCC2(COC2)CSCCSCC2(COC2)CS1 end up with in this test?
// result No

// query What classification did O=C(O)C1C2CC3C(OC(=O)C31)C2Br (centres undefined) end up with in this test?
// result Yes

// query What classification did NCC(=O)Nc1ccc(S(=O)(=O)O)c2cc(S(=O)(=O)O)cc(S(=O)(=O)O)c12 end up with in this test?
// result No

// query What classification did COc1ccc(OC)c(-c2cc(=O)c3c(OC)c(OC)c(OC)c(OC)c3o2)c1 end up with in this test?
// result No

###

- Tested on: UACC-257
- TEST: NCI tumour cell line growth inhibition, 48 h
Calls of active or inactive are those of the source. No stated cut-off is given here; in the data, active = GI50 up to about 1.1 µM and inactive = higher.
QUANTITY KIND: GI50

So, CCC1NC(/N=N/c2ccc([N+](=O)[O-])cc2)(P(=O)(OC(C)C)OC(C)C)OC1=O (stereo not given) ? Its GI50 was > 100 µM (inactive)

So, CCOC(=O)C1CCCCc2sc(N)c(C#N)c21 (stereo not given) ? Its GI50 was > 100 µM (inactive)

So, c1ccc2c(-c3ccnc(-c4c[nH]c5ccccc45)n3)c[nH]c2c1 ? Its GI50 was 4.34 µM (inactive)

So, CN(C)CN(C)c1nc(N(C)C)nc(N(C)CN(C)C)n1 ? Its GI50 was 34.7 µM (inactive)

So, NNC1=N/C(=C\c2ccco2)C(=O)N1 ? Its GI50 was > 100 µM (inactive)

So, COC(=O)c1cc(O)c(O)c(O)c1-c1c(O)c(O)c(O)c(SC[C@H](NC(=O)OCc2ccccc2)C(=O)OCc2ccccc2)c1C(=O)OC ? Its GI50 was 32.8 µM (inactive)

So, Cc1cccc(C)c1N1C(=O)C(=O)C(c2nc3ccccc3s2)/C(=N/c2cccc3c(=O)[nH][nH]c(=O)c23)C1=O (stereo not given) ? Its GI50 was > 100 µM (inactive)

So, Cc1c(C)c(S(=O)(=O)N(CCCCCON)OCCCN)c(C)c2c1OC(C)(C)CC2 ? Its GI50 was 15.9 µM (inactive)

So, COc1ccc(/C=C2/CCCC/C2=N/O)cc1 ? Its GI50 was > 100 µM (inactive)

So, O=C(O)CN(CC(=O)O)Cc1cc(C#Cc2ccc(C#Cc3ccccc3)cc2)cc(CN(CC(=O)O)CC(=O)O)n1 ? Its GI50 was 40.8 µM (inactive)
